// data source = patent US7649020B2

test: Comparative bioavailability study in dogs, plasma levels of modafinil after a single oral dose; type: in vivo, dog; settings: male, beagle, dog, plasma, po, 30 mg/kg, Table 2; male beagle dogs, single oral 30 mg/kg; mean ± SEM; read-out: Cmax (maximum plasma level of modafinil)
experimentalEndpoint: Cmax (ng/mL)
Your answer should be a plain number; it is taken to be in ng/mL.

Looking up NC(=O)C[S+]([O-])C(c1ccccc1)c1ccccc1 (racemic) [Form I, 2-(benzhydrylsulfinyl) acetamide, reference compound] , I found its Cmax recorded as 18600

###

experiment: Comparative bioavailability study in dogs, plasma levels of modafinil after a single oral dose; format: in vivo, dog; details: male, beagle, dog, plasma, po, 30 mg/kg, Table 3; dogs, single oral 30 mg/kg; mean; read-out: Tmax (time to reach peak plasma level of modafinil)
experimentalEndpoint: Tmax (h)
Your answer should be a plain number; it is taken to be in h.

Looking up NC(=O)C[S+]([O-])C(c1ccccc1)c1ccccc1 (racemic) [Form I, 2-(benzhydrylsulfinyl) acetamide, reference compound] , I found its Tmax recorded as 3

###

assay: Comparative bioavailability study in dogs, plasma levels of modafinil after a single oral dose; type: in vivo, dog; details: male, beagle, dog, plasma, po, 30 mg/kg, Table 3; dogs, single oral 30 mg/kg; mean ± SEM; read-out: C1 h (plasma level at 1 hour post-dose)
experimentalEndpoint: concentration at 1 h
Number plus unit, in that order.

Looking up NC(=O)C[S+]([O-])C(c1ccccc1)c1ccccc1 (racemic) [Form I, 2-(benzhydrylsulfinyl) acetamide, reference compound] , I found its concentration at 1 h recorded as 8810 ng/mL

###

experiment: Comparative bioavailability study in dogs, plasma levels of modafinil after a single oral dose; assay type: in vivo, dog; conditions: male, beagle, dog, plasma, po, 30 mg/kg, Table 3; dogs, single oral 30 mg/kg; mean ± SEM; read-out: C2.5 h (plasma level at 2.5 hours post-dose)
experimentalEndpoint: concentration at 2.5 h (ng/mL)
Your answer should be a plain number; it is taken to be in ng/mL.

Looking up NC(=O)C[S+]([O-])C(c1ccccc1)c1ccccc1 (racemic) [Form I, 2-(benzhydrylsulfinyl) acetamide, reference compound] , I found its concentration at 2.5 h recorded as 14200

###

test: Comparative bioavailability study in dogs, plasma levels of modafinil after a single oral dose; format: in vivo, dog; details: male, beagle, dog, plasma, po, 30 mg/kg, Table 3; dogs, single oral 30 mg/kg; mean ± SEM; read-out: C1.5 h (plasma level at 1.5 hours post-dose)
experimentalEndpoint: concentration at 1.5 h

Looking up NC(=O)C[S+]([O-])C(c1ccccc1)c1ccccc1 (racemic) [Form I, 2-(benzhydrylsulfinyl) acetamide, reference compound] , I found its concentration at 1.5 h recorded as 12700 ng/mL

###

assay: Comparative bioavailability study in dogs, plasma levels of modafinil after a single oral dose; format: in vivo, dog; settings: male, beagle, dog, plasma, po, 30 mg/kg, Table 2; male beagle dogs, single oral 30 mg/kg; trapezoidal rule 0 to 24 hours post-dose; mean ± SEM; read-out: AUC0-24 h
experimentalEndpoint: AUC(0-t) (µg·h/mL)
Your answer should be a plain number; it is taken to be in µg·h/mL.

Looking up NC(=O)C[S+]([O-])C(c1ccccc1)c1ccccc1 (racemic) [Form I, 2-(benzhydrylsulfinyl) acetamide, reference compound] , I found its AUC(0-t) recorded as 165
